ASSAY SYSTEM: human NaV1.5 late sodium current (INaL) (Homo sapiens (Human))
Sequence (Q14524 whole entry): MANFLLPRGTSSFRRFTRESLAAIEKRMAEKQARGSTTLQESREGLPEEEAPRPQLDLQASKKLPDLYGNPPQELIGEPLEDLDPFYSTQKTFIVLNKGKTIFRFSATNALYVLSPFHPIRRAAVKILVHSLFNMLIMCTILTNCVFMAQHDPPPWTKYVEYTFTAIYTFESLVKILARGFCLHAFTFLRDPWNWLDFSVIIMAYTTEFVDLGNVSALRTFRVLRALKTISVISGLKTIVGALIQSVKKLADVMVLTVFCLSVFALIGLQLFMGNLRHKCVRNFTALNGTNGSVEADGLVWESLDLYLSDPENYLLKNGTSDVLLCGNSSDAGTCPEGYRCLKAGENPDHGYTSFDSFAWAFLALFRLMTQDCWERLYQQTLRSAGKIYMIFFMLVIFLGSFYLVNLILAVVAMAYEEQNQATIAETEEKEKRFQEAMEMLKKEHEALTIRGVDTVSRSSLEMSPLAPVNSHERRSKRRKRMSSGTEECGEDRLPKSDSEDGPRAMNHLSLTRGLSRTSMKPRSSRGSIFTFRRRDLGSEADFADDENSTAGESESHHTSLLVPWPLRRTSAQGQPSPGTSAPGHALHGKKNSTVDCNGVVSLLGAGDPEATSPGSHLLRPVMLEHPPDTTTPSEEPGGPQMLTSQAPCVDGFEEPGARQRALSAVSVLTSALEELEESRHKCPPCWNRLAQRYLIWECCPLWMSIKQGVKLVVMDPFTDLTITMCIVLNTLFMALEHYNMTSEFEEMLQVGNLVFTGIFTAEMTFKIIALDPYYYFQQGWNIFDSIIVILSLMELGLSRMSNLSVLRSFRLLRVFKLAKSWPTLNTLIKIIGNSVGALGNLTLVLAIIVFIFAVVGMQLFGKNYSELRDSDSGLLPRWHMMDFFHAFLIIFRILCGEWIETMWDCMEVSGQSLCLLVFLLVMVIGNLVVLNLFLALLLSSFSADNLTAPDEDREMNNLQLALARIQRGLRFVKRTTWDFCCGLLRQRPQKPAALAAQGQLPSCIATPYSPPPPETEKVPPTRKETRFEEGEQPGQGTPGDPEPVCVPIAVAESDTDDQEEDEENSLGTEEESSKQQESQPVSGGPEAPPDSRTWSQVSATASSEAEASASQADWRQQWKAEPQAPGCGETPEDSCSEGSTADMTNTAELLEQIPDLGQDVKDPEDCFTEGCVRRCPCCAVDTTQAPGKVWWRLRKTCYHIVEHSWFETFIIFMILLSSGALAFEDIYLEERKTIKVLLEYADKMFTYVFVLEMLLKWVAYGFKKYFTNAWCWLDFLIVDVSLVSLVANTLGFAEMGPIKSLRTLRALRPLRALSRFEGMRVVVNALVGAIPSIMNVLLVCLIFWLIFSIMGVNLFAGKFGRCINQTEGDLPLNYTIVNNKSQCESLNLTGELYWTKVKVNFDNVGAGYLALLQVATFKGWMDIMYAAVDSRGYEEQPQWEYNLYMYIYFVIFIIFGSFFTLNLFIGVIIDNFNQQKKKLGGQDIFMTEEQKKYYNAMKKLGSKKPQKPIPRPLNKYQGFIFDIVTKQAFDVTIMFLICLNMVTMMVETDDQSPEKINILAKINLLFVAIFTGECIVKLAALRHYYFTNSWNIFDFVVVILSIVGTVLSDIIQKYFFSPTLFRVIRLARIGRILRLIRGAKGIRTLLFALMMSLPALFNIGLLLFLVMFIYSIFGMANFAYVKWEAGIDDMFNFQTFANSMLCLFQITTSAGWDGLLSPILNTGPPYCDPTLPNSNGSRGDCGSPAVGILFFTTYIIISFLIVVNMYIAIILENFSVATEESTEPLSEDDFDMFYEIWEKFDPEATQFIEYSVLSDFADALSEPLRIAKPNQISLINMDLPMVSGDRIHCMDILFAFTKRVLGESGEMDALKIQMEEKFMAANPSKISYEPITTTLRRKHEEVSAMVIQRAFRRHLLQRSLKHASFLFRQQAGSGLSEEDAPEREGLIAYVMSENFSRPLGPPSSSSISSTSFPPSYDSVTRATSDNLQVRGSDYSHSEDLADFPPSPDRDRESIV
EXPERIMENT SUMMARY: INaL inhibition at hNaV1.5, PatchXpress electrophysiology
Assay type: cell-based
RUN CONDITIONS: HEK-293 cells expressing recombinant human NaV1.5, HEK-293 cells expressing hNaV1.5, late current evoked by 300 nM ATX-II, read-out: INaL v1.5 (1 μM, % Inhibition)
ASSAY METRIC: inhibition at 1 µM

Examples with answers:
>  <COMPOUND>
FC(F)(F)Oc1ccc(-c2ccc3nnc(CC4CCOC4)n3n2)cc1 (stereo not drawn) [Compound 10]

>  <ASSAY SYSTEM>
human NaV1.5 late sodium current (INaL) (Homo sapiens (Human))

>  <OBSERVED VALUE>
< 50%

$$$$
>  <COMPOUND>
FC(F)(F)COc1ccc(-c2ccc3nnc(C4CC4)n3n2)cn1 [Compound 8]

>  <ASSAY SYSTEM>
human NaV1.5 late sodium current (INaL) (Homo sapiens (Human))

>  <OBSERVED VALUE>
> 50%

$$$$
>  <COMPOUND>
N#CC1(c2ccc(-c3ccc4nnc(C(F)(F)F)n4n3)cc2)CC1 [Compound 12]

>  <ASSAY SYSTEM>
human NaV1.5 late sodium current (INaL) (Homo sapiens (Human))

>  <OBSERVED VALUE>
> 50%

$$$$
>  <COMPOUND>
FC(F)(F)COc1ccc(-c2ccc3nnc(CC(F)(F)F)n3n2)cn1 [Compound 7]

>  <ASSAY SYSTEM>
human NaV1.5 late sodium current (INaL) (Homo sapiens (Human))

>  <OBSERVED VALUE>
< 50%

$$$$
>  <COMPOUND>
FC(F)(F)Oc1cccc(-c2ccc3nnc(C(F)(F)F)n3n2)c1 [Compound 17]

>  <ASSAY SYSTEM>
human NaV1.5 late sodium current (INaL) (Homo sapiens (Human))

>  <OBSERVED VALUE>
< 50%

$$$$

What measured inhibition at 1 µM goes with FC(F)(F)COc1ccc(-c2ccc3nnc(C(F)(F)C(F)(F)F)n3n2)cn1 [Compound 9] ?
> 50%

What measured inhibition at 1 µM goes with Fc1c(OC(F)(F)F)cccc1-c1ccc2nnc(C(F)(F)F)n2n1 [Compound 19] ?
< 50%

What measured inhibition at 1 µM goes with OCc1nnc2ccc(-c3ccc(OC(F)(F)F)cc3)nn12 [Compound 21] ?
< 50%

What measured inhibition at 1 µM goes with COc1cc(OC(F)(F)F)ccc1-c1ccc2nnc(C3CC(F)(F)C3)n2n1 [Compound 13] ?
> 50%

---

Listing: inhibition at 1 µM of selected molecules
ASSAY SYSTEM: UniProt:Q9UQD0
EXPERIMENT SUMMARY: INaL inhibition at hNaV1.6, PatchXpress electrophysiology
Type: cell-based
RUN CONDITIONS: HEK293; 1 μM; HEK-293 cells expressing hNaV1.6; late current evoked by 300 nM ATX-II; read-out: INaL v1.6 (1 μM, % Inhibition)

Examples with answers:
>  <MOLECULE>
C[C@H](Oc1ncc(-c2ccc3nnc(C(F)(F)F)n3n2)cc1F)C(F)(F)F (single isomer, unassigned)

>  <OBSERVED VALUE>
> 70%

$$$$
>  <MOLECULE>
Fc1cc(-c2ccc3nnc(C(F)(F)F)n3n2)cnc1OC1CC(F)(F)C1

>  <OBSERVED VALUE>
> 70%

$$$$
>  <MOLECULE>
Fc1cc(C(F)(F)F)ccc1-c1cn2c(C(F)(F)F)nnc2cn1

>  <OBSERVED VALUE>
30 to 70%

$$$$

What measured inhibition at 1 µM goes with FC(F)(F)Oc1ccc(-c2ccc3nnc(C[C@H]4CCCCO4)n3n2)cc1 (single isomer, unassigned) ?
30 to 70%

What measured inhibition at 1 µM goes with C[C@@H](Oc1ccc(-c2ccc3nnc(C(F)(F)F)n3n2)cn1)C(F)(F)F ?
> 70%

What measured inhibition at 1 µM goes with Fc1cc(-c2ccc3nnc(C(F)F)n3n2)cnc1OCC(F)(F)F ?
< 30%

What measured inhibition at 1 µM goes with NC(=O)c1cc(-c2ccc(OC(F)(F)F)cc2)nn2c(C(F)(F)F)nnc12 ?
< 30%

What measured inhibition at 1 µM goes with FC(F)(F)COc1ccc(-c2cn3c(C(F)(F)F)nnc3cn2)cn1 ?
30 to 70%

What measured inhibition at 1 µM goes with COCc1ccc(-c2ccc3nnc(C(F)F)n3n2)cc1 ?
< 30%

What measured inhibition at 1 µM goes with COC(F)(F)c1nnc2ccc(-c3cnc(OCC(F)(F)F)c(F)c3)nn12 ?
> 70%

What measured inhibition at 1 µM goes with OCc1ccc(-c2cn3c(C(F)F)nnc3cn2)cc1 ?
< 30%

What measured inhibition at 1 µM goes with CCOc1ccc(-c2cn3c(C(F)(F)F)nnc3cn2)cc1 ?
< 30%

What measured inhibition at 1 µM goes with O=C(O)c1cc(-c2ccc(OC(F)(F)F)cc2)nn2c(C(F)(F)F)nnc12 ?
< 30%

---

ASSAY SYSTEM: CYP1A2 (Homo sapiens (Human))
Sequence (P05177 whole entry): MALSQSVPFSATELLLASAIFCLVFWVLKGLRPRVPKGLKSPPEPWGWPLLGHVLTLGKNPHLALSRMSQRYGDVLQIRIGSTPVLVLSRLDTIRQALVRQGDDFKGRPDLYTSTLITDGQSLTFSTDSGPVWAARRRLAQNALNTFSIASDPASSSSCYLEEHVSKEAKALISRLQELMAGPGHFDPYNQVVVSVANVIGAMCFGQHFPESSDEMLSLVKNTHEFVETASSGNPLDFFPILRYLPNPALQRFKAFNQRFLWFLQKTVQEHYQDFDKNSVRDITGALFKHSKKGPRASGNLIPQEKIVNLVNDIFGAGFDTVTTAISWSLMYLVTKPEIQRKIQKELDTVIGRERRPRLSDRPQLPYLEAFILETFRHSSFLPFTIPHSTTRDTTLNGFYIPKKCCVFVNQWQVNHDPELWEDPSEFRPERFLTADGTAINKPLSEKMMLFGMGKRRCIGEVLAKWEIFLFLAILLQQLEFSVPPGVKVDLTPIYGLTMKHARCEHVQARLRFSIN
pIC50: −log10 of the molar value.
ASSAY METRIC: pIC50

Examples with answers:
>  <COMPOUND>
COCc1cc(-c2ccc3nnc(C(F)(F)F)n3n2)ccc1OC(F)(F)F

>  <ASSAY METRIC>
pIC50

>  <OBSERVED VALUE>
4.52 to 4.82

$$$$
>  <COMPOUND>
FC(F)(F)Oc1ccc(-c2ccc3nnc(C[C@@H]4CCCCO4)n3n2)cc1 (single isomer, unassigned)

>  <ASSAY METRIC>
pIC50

>  <OBSERVED VALUE>
< 4.52

$$$$
>  <COMPOUND>
Fc1cc(-c2ccc3nnc(C(F)(F)F)n3n2)cnc1OCC(F)(F)F

>  <ASSAY METRIC>
pIC50

>  <OBSERVED VALUE>
< 4.52

$$$$
>  <COMPOUND>
FC(F)(F)Oc1ccc(-c2ccc3nnc(C[C@H]4CCCCO4)n3n2)cc1 (single isomer, unassigned)

>  <ASSAY METRIC>
pIC50

>  <OBSERVED VALUE>
< 4.52

$$$$
>  <COMPOUND>
FC(F)(F)COc1ccc(-c2ccc3nnc(C(F)(F)F)n3n2)cn1

>  <ASSAY METRIC>
pIC50

>  <OBSERVED VALUE>
4.52 to 4.82

$$$$
>  <COMPOUND>
FC(F)(F)c1nnc2ccc(-c3ccc([C@@H]4CC4(F)F)cc3)nn12 (single isomer, unassigned)

>  <ASSAY METRIC>
pIC50

>  <OBSERVED VALUE>
> 6.00

$$$$
>  <COMPOUND>
CC(C)Oc1ccc(-c2cn3c(C(F)(F)F)nnc3cn2)cc1

>  <ASSAY METRIC>
pIC50

>  <OBSERVED VALUE>
4.82 to 6.00

$$$$

Turning now to a further record.
Checklist item: pIC50 tested on CYP1A2 (Homo sapiens (Human)), entry FC(F)(F)Oc1ccc(-c2ccc3nnc(C(F)(F)F)n3n2)cc1 , value?
4.82 to 6.00

---

Listing: clearance of selected compounds
EXPERIMENT SUMMARY: PK rat clearance experiment
Type: in vivo
RUN CONDITIONS: male Sprague-Dawley rats, single intravenous bolus 0.5 mg/kg, plasma
Numbers only here, please. The scale is L/h/kg.

Examples with answers:
>  <COMPOUND>
Fc1cc(OC(F)(F)F)ccc1-c1ccc2nnc(C(F)(F)F)n2n1

>  <clearance / L/h/kg>
0.084

$$$$
>  <COMPOUND>
FC1(F)CC(c2nnc3ccc(-c4ccc(OC(F)(F)F)cc4)nn23)C1

>  <clearance / L/h/kg>
1.97

$$$$
>  <COMPOUND>
Cc1cc(C(F)(F)F)ccc1-c1ccc2nnc(C(F)(F)F)n2n1

>  <clearance / L/h/kg>
0.36

$$$$

What measured clearance goes with FC(F)(F)Cc1nnc2ccc(-c3ccc(OC(F)(F)F)cc3)nn12 ?
0.552

What measured clearance goes with COc1cc(OC(F)(F)F)ccc1-c1ccc2nnc(C(F)F)n2n1 ?
3.14

What measured clearance goes with COc1cc(C2(C#N)CC2)ccc1-c1ccc2nnc(C(F)(F)F)n2n1 ?
0.996

---

Listing: inhibition at 1 µM of selected compounds
ASSAY SYSTEM: human NaV1.6 (hNaV1.6) (Homo sapiens (Human))
Sequence (Q9UQD0 whole entry): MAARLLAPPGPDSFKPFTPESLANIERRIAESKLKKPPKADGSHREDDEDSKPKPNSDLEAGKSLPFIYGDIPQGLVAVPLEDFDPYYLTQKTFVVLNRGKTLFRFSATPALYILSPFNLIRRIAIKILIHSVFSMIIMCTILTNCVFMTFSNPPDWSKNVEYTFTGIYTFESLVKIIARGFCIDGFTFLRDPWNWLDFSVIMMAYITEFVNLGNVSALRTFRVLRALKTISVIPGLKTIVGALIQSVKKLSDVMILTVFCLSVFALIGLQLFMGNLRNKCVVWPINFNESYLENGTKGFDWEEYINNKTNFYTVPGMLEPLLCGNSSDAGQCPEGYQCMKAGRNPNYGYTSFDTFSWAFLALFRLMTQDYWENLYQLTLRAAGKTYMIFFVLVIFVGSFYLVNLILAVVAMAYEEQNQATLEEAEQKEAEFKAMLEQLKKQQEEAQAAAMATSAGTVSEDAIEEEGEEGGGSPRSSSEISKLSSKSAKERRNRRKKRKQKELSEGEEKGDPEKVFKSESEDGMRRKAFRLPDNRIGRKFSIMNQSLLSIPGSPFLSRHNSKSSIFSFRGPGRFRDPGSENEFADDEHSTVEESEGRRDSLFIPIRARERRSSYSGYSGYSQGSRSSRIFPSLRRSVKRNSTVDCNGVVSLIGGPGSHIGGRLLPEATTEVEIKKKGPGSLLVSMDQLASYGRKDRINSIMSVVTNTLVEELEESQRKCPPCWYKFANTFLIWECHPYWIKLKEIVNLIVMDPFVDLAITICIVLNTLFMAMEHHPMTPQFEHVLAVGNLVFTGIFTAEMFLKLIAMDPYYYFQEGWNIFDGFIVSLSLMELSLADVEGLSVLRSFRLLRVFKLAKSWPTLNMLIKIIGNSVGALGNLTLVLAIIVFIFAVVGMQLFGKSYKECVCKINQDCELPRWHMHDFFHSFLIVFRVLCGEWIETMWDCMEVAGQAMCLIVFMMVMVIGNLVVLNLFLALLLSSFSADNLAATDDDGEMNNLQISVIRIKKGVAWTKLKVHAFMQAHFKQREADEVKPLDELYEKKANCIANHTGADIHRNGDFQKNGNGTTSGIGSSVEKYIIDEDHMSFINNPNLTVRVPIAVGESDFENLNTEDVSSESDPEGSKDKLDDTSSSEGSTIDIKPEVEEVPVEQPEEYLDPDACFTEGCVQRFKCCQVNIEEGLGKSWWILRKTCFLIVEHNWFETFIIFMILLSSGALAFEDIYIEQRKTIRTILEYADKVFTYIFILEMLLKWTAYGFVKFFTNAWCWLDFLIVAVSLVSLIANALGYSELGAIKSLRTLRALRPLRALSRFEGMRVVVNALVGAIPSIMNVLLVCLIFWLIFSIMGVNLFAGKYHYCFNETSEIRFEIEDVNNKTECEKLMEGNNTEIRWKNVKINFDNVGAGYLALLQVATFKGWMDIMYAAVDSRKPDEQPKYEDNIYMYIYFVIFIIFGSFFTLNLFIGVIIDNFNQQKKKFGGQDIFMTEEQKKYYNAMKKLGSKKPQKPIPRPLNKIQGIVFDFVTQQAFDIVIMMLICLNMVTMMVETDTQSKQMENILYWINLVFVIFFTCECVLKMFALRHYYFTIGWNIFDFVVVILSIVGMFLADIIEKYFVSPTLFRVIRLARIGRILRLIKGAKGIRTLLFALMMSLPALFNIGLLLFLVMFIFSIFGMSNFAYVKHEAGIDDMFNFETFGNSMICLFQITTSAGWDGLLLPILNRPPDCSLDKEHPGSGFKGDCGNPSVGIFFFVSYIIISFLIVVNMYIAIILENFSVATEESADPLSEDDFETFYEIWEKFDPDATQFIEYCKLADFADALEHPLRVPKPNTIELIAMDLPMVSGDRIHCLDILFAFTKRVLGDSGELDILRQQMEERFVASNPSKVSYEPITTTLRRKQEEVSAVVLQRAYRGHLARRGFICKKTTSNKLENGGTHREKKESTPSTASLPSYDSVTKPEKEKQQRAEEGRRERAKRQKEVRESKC
EXPERIMENT SUMMARY: INaL inhibition at hNaV1.6, PatchXpress electrophysiology
Format: cell-based
RUN CONDITIONS: HEK293; 1 μM; HEK-293 cells expressing hNaV1.6; late current evoked by 300 nM ATX-II; read-out: INaL v1.6 (1 μM, % Inhibition)

Examples with answers:
>  <COMPOUND>
CC(=O)Nc1cc2nnc(C(F)(F)F)n2nc1-c1ccc(OC(F)(F)F)cc1

>  <OBSERVED VALUE>
< 30%

$$$$
>  <COMPOUND>
COCc1cc2nnc(C(F)(F)F)n2nc1-c1ccc(OC(F)(F)F)cc1

>  <OBSERVED VALUE>
< 30%

$$$$
>  <COMPOUND>
COc1cc(OC(F)(F)F)ccc1-c1ccc2nnc(C(F)(F)OCC3CC3)n2n1

>  <OBSERVED VALUE>
> 70%

$$$$
>  <COMPOUND>
OCc1ccc(-c2cn3c(C(F)(F)F)nnc3cn2)cc1

>  <OBSERVED VALUE>
< 30%

$$$$
>  <COMPOUND>
COc1cc(OC(F)(F)F)ccc1-c1ccc2nnc(C3CC(F)(F)C3)n2n1

>  <OBSERVED VALUE>
> 70%

$$$$

Turning now to a further record.
Checklist item: inhibition at 1 µM tested on human NaV1.6 (hNaV1.6) (Homo sapiens (Human)), entry C[C@@H](Oc1ncc(-c2ccc3nnc(C(F)(F)F)n3n2)cc1F)C(F)(F)F (single isomer, unassigned) , value?
> 70%
